Data provenance: patent US7888380B2

# experimental details: Standard Rat Pharmacokinetics (PK)
# Type: in vivo
# recorded conditions: rat plasma, IV 3 mg/kg of prodrug; read-out: Prodrug Cmax (μM) IV
# Cmax per entry
metric name: Cmax

• Nc1nc(Nc2ccc(S(=O)(=O)NC(=O)CCC(=O)O)cc2)nn1C(=O)c1c(F)cccc1F = 47 µM
• CCOC(=O)CCC(=O)NS(=O)(=O)c1ccc(Nc2nc(N)n(C(=O)c3c(F)cccc3F)n2)cc1 = 72.2 µM
• CCCCC(=O)NS(=O)(=O)c1ccc(Nc2nc(N)n(C(=O)c3c(F)cccc3F)n2)cc1 = 134 µM
• Nc1nc(Nc2ccc(S(=O)(=O)NC(=O)Cn3cnnn3)cc2)nn1C(=O)c1c(F)cccc1F = 23.5 µM
• CN(C)CC(=O)NS(=O)(=O)c1ccc(Nc2nc(N)n(C(=O)c3c(F)cccc3F)n2)cc1 = 25.2 µM
• Nc1nc(Nc2ccc(S(=O)(=O)NC(=O)CCN3CCOCC3)cc2)nn1C(=O)c1c(F)cccc1F = 20.5 µM
• COCCOCC(=O)NS(=O)(=O)c1ccc(Nc2nc(N)n(C(=O)c3c(F)cccc3F)n2)cc1 = 42.9 µM
• CCCC(=O)NS(=O)(=O)c1ccc(Nc2nc(N)n(C(=O)c3c(F)cccc3F)n2)cc1 = 127 µM
